test.details: Laboratory values (toxicity) of Rheumatoid Arthritis patients on M-Trex
Assay type: in vivo, human
stated.conditions: RA patients, M-Trex 7.5 mg per day, VISIT 2
quantity.name: CREATININE (mg/dL)
Report the value in mg/dL with no unit label.

(Q) CREATININE for C=C(CC(NC(=O)c1ccc(CCc2ccc3nc(N)nc(N)c3c2)cc1)C(=O)O)C(=O)O (stereo not shown) ?
(A) 0.79

====

test.details: Laboratory values (toxicity) of Rheumatoid Arthritis patients on M-Trex
Type: in vivo, human
stated.conditions: RA patients, M-Trex 7.5 mg per day, VISIT 2
quantity.name: SGOT
Please provide the amount together with its unit, number first.

(Q) What value of SGOT has been reported for the following compound? C=C(CC(NC(=O)c1ccc(CCc2ccc3nc(N)nc(N)c3c2)cc1)C(=O)O)C(=O)O (stereo not shown)
(A) 14.6 U/L

====

test.details: Laboratory values (toxicity) of Rheumatoid Arthritis patients on M-Trex
Assay type: in vivo, human
stated.conditions: RA patients, M-Trex 7.5 mg per day, VISIT 3
quantity.name: SGOT

(Q) So what's the measured SGOT for this one? C=C(CC(NC(=O)c1ccc(CCc2ccc3nc(N)nc(N)c3c2)cc1)C(=O)O)C(=O)O (stereo not shown) [M-Trex, 4′-methylene-5,8-10-trideazaaminopterin]
(A) 16 U/L

====

test.details: Laboratory values (toxicity) of Rheumatoid Arthritis patients on M-Trex
Assay type: in vivo, human
stated.conditions: RA patients, M-Trex 7.5 mg per day, VISIT 6
quantity.name: CREATININE (mg/dL)
Reply numerically in mg/dL, unit not repeated.

(Q) Data request, read-out CREATININE, for C=C(CC(NC(=O)c1ccc(CCc2ccc3nc(N)nc(N)c3c2)cc1)C(=O)O)C(=O)O (stereo not shown)
(A) 0.92

====

test.details: Laboratory values (toxicity) of Rheumatoid Arthritis patients on M-Trex
Assay type: in vivo, human
stated.conditions: RA patients, M-Trex 7.5 mg per day, VISIT 4
quantity.name: SGOT (U/L)
The response must be a number in U/L with no trailing unit.

(Q) Param item = C=C(CC(NC(=O)c1ccc(CCc2ccc3nc(N)nc(N)c3c2)cc1)C(=O)O)C(=O)O (stereo not shown) [M-Trex, 4′-methylene-5,8-10-trideazaaminopterin] ; retrieve measured SGOT.
(A) 16

====

test.details: Laboratory values (toxicity) of Rheumatoid Arthritis patients on M-Trex
Type: in vivo, human
stated.conditions: RA patients, M-Trex 7.5 mg per day, VISIT 4
quantity.name: GLUCOSE (mg/dL)
Express the result in mg/dL but write the number alone.

(Q) Tell me the measured GLUCOSE of C=C(CC(NC(=O)c1ccc(CCc2ccc3nc(N)nc(N)c3c2)cc1)C(=O)O)C(=O)O (stereo not shown) [M-Trex, 4′-methylene-5,8-10-trideazaaminopterin] , please.
(A) 87.5

====

test.details: Laboratory values (toxicity) of Rheumatoid Arthritis patients on M-Trex
Format: in vivo, human
stated.conditions: RA patients, M-Trex 7.5 mg per day, VISIT 2
quantity.name: GLUCOSE (mg/dL)
# value in mg/dL; strip the unit string

(Q) What measured GLUCOSE goes with C=C(CC(NC(=O)c1ccc(CCc2ccc3nc(N)nc(N)c3c2)cc1)C(=O)O)C(=O)O (stereo not shown) [M-Trex, 4′-methylene-5,8-10-trideazaaminopterin] ?
(A) 83.8

====

test.details: Laboratory values (toxicity) of Rheumatoid Arthritis patients on M-Trex
Format: in vivo, human
stated.conditions: RA patients, M-Trex 7.5 mg per day, VISIT 5
quantity.name: SGOT

(Q) Please report the recorded SGOT for C=C(CC(NC(=O)c1ccc(CCc2ccc3nc(N)nc(N)c3c2)cc1)C(=O)O)C(=O)O (stereo not shown) [M-Trex, 4′-methylene-5,8-10-trideazaaminopterin] .
(A) 17.3 U/L

====

test.details: Laboratory values (toxicity) of Rheumatoid Arthritis patients on M-Trex
Assay type: in vivo, human
stated.conditions: RA patients, M-Trex 7.5 mg per day, VISIT 5
quantity.name: CREATININE (mg/dL)
Number only, in mg/dL; omit the unit.

(Q) Sample C=C(CC(NC(=O)c1ccc(CCc2ccc3nc(N)nc(N)c3c2)cc1)C(=O)O)C(=O)O (stereo not shown) [M-Trex, 4′-methylene-5,8-10-trideazaaminopterin] — what was its CREATININE?
(A) 0.85

====

test.details: Laboratory values (toxicity) of Rheumatoid Arthritis patients on M-Trex
Format: in vivo, human
stated.conditions: RA patients, M-Trex 7.5 mg per day, VISIT 7
quantity.name: GLUCOSE (mg/dL)
Report only the number, with the unit mg/dL understood.

(Q) // returns reported GLUCOSE for input C=C(CC(NC(=O)c1ccc(CCc2ccc3nc(N)nc(N)c3c2)cc1)C(=O)O)C(=O)O (stereo not shown)
(A) 90.3

====

test.details: Laboratory values (toxicity) of Rheumatoid Arthritis patients on M-Trex
Assay type: in vivo, human
stated.conditions: RA patients, M-Trex 7.5 mg per day, VISIT 3
quantity.name: CREATININE (mg/dL)
Quick note: give the figure in mg/dL, leave out the unit.

(Q) Which CREATININE value belongs to C=C(CC(NC(=O)c1ccc(CCc2ccc3nc(N)nc(N)c3c2)cc1)C(=O)O)C(=O)O (stereo not shown) [M-Trex, 4′-methylene-5,8-10-trideazaaminopterin] ?
(A) 0.95

====

test.details: Laboratory values (toxicity) of Rheumatoid Arthritis patients on M-Trex
Assay type: in vivo, human
stated.conditions: RA patients, M-Trex 7.5 mg per day, VISIT 6
quantity.name: GLUCOSE (mg/dL)
Express it in mg/dL; write the number only.

(Q) If you can, please state the reported GLUCOSE value of C=C(CC(NC(=O)c1ccc(CCc2ccc3nc(N)nc(N)c3c2)cc1)C(=O)O)C(=O)O (stereo not shown) [M-Trex, 4′-methylene-5,8-10-trideazaaminopterin] .
(A) 92.4

====

test.details: Laboratory values (toxicity) of Rheumatoid Arthritis patients on M-Trex
Format: in vivo, human
stated.conditions: RA patients, M-Trex 7.5 mg per day, VISIT 5
quantity.name: GLUCOSE
# output: numeric value plus its unit

(Q) GLUCOSE for C=C(CC(NC(=O)c1ccc(CCc2ccc3nc(N)nc(N)c3c2)cc1)C(=O)O)C(=O)O (stereo not shown) [M-Trex, 4′-methylene-5,8-10-trideazaaminopterin] ?
(A) 88.1 mg/dL
